# run.description: activity coefficient (dimensionless); of the first substance listed, at infinite dilution; xn = mol fraction of the nth substance listed
# study.conditions: 303.15 K; 101 kPa; Liquid; dilutor technique; x1 = 0
Values of activity coefficient greater than or equal to 1 map to yes (1); values below map to no (0).

- compound: "CCC(C)O (stereo not given) [butan-2-ol] + CCOS(=O)(=O)[O-].CCn1cc[n+](C)c1"
  category.label: "yes (1)"
- compound: "CCO [ethanol] + CCOS(=O)(=O)[O-].CCn1cc[n+](C)c1"
  category.label: "no (0)"
- compound: "CO [methanol] + CCOS(=O)(=O)[O-].CCn1cc[n+](C)c1"
  category.label: "no (0)"
- compound: "CC(C)O [propan-2-ol] + CCOS(=O)(=O)[O-].CCn1cc[n+](C)c1"
  category.label: "yes (1)"
- compound: "CCCO [propan-1-ol] + CCOS(=O)(=O)[O-].CCn1cc[n+](C)c1"
  category.label: "yes (1)"
